# target-or-system: T1, human MSLN-R3-his protein (human, UniProt Q13421 487-598)
# T1 construct: Region 3 of human mesothelin, made in HEK293E cells, His-tagged; also called human MSLN-R3 protein; hMSLN-R3-his; not shown: His tag
# T1 sequence (Q13421 495-606): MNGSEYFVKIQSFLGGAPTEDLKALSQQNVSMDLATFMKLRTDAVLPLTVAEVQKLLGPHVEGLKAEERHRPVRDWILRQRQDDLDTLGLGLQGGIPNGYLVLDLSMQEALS
# method-description: ELISA on coated MSLN-R3; antibody 1 nM
OD450 reference
Param answer (str): number followed by unit.

S009-F8-18.9 (antibody, human IgG1, kappa, V domains shown) VH: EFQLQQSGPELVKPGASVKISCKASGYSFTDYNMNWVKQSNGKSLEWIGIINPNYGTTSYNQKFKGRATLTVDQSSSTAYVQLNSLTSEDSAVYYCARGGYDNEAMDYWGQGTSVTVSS VL: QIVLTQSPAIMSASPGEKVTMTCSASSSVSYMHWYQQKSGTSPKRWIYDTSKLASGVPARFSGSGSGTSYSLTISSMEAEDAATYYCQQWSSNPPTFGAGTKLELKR	0.05 OD450

Reported OD450, binder S009-F8-19.21 (antibody, human IgG1, kappa, V domains shown) VH: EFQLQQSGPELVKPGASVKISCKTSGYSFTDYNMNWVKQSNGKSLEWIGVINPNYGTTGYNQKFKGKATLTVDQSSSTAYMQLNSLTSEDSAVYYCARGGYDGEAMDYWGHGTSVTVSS VL: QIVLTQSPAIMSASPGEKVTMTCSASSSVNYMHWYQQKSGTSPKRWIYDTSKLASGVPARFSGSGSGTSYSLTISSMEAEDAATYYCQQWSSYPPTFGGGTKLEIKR : ____
0.04 OD450

And what about the binder S009-F8-27.1 (antibody, human IgG1, kappa, V domains shown) VH: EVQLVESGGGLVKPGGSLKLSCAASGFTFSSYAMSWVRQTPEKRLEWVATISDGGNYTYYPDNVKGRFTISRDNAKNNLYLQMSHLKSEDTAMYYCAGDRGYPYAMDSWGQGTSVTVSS VL: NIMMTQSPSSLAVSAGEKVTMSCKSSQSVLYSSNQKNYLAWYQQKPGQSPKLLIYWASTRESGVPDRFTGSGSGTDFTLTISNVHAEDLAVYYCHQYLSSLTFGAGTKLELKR ?
0.04 OD450

And what about the binder S009-F8-13.8 (antibody, human IgG1, kappa, V domains shown) VH: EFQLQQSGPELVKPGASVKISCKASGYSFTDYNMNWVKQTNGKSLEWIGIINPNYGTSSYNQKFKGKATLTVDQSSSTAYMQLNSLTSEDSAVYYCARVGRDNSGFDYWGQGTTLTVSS VL: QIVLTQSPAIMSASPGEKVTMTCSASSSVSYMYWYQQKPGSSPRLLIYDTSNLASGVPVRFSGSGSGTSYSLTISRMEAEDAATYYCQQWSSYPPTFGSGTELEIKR ?
0.04 OD450
